Origin of values: patent US20230000813A1

- System: Pasteurella multocida PM 12080 (IV102277-0093, BRD field isolate)
- ASSAY DETAILS: MIC, broth-microdilution (CLSI VET01-A4)
- Format: cell-based
- RUN PARAMETERS: Pasteurella multocida PM 12080; read-out: MIC PM 12080
# Lookup of reported MIC keyed by entry
Give just the number in µM; leave the unit off.

> print(dat)
                                   compound  result.unit  reported.result
1  CC(C)C(NC(=O)c1ccc(C#Cc2ccc(CNCc3cccnc3)cc2)cc1)C(=O)NO (stereo not shown) [Compound 287]           µM              0.2
2  CC(C)(N)C(NC(=O)c1ccc(C#Cc2ccc(CNCc3ccc(F)cc3)s2)cc1)C(=O)NO (racemic) [Compound 637]           µM              0.2
3  CCCNCc1ccc(C#Cc2ccc(C(=O)N[C@H](C(=O)NO)[C@@H](C)O)cc2)s1 [Compound 404]           µM              0.8
4  CC(C)(N)C(NC(=O)c1ccc(C#Cc2ccc(CN3CC=CC3)s2)cc1)C(=O)NO (racemic) [Compound 649]           µM              0.2

[ask] Which MIC is reported for this compound? CSC(C)(C)[C@H](NC(=O)c1ccc(C#Cc2ccc(CNCc3nccs3)nc2)cc1)C(=O)NO [Compound 744]
[reply] 0.2

[ask] Which MIC is reported for this compound? C[C@@H](O)[C@H](NC(=O)c1ccc(C#Cc2ccc([N+](=O)[O-])cc2)cc1)C(=O)NO [Compound 243]
[reply] 0.2
